Molecular target: Angiotensin-converting enzyme (Rattus norvegicus) (UniProt P47820)
Sequence (whole entry): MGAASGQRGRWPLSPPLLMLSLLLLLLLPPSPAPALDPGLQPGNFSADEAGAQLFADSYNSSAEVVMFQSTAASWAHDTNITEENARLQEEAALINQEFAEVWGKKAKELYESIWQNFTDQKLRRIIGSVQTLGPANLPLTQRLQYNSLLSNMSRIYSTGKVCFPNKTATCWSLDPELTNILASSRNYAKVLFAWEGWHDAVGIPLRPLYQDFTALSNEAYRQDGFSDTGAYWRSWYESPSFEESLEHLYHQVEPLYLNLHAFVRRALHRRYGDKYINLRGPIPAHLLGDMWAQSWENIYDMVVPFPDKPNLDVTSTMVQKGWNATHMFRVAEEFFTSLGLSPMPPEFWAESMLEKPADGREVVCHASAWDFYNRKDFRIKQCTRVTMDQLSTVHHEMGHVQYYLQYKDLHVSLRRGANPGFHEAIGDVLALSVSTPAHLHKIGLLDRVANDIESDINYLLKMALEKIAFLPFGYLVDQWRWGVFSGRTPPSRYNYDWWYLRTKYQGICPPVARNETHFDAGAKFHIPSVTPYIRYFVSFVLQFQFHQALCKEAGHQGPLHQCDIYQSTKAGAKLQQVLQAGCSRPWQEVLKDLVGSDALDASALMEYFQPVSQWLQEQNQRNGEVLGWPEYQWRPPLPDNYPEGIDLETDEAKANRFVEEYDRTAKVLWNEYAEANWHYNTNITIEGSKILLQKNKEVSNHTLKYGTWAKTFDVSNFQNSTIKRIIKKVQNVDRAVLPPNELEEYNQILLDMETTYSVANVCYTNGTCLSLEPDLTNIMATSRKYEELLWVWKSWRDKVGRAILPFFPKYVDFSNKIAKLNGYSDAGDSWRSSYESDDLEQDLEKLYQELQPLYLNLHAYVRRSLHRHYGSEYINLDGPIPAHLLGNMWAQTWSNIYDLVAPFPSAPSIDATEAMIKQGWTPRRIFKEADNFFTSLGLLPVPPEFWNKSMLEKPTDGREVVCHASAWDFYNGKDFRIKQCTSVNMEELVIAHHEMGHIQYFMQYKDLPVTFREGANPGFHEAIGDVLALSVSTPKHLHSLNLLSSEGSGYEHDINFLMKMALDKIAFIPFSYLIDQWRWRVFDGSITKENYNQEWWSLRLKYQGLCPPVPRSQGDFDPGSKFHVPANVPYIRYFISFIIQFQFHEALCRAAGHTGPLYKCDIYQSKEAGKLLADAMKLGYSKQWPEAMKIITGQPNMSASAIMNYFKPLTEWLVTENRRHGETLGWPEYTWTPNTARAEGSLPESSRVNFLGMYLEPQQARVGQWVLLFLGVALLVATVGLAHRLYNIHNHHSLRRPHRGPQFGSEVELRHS
Assay: Evaluation of plasma inhibition of Angiotensin I converting enzyme activity in conscious rat 1 hour after intravenous administration at a dose of 10 mg/kg
Assay type: functional, organism-based
Set-up: dose 10 mg/kg
property.name: inhibition (%)

mol.smiles | property.name | meas.value
CC(C)[C@H](S)C(=O)NC(C)(C)C(=O)N[C@@H](Cc1ccc(O)cc1)C(=O)O | inhibition | 88
CC(C)[C@H](S)C(=O)NC1(C(=O)N[C@@H](Cc2ccc(O)cc2)C(=O)O)CC1 | inhibition | 91
CC(C)[C@H](S)C(=O)NC1(C(=O)N[C@@H](Cc2ccc(O)cc2)C(=O)O)CCCC1 | inhibition | 90
